Reference for the values: patent US20220281848A1

Form field: damage to plant (100=total damage; 0=no damage) SETFA (one value per entry).
tested on: giant foxtail (Setaria faberi, SETFA); assay: Test A post-emergence, giant foxtail; type: in vivo; conditions: Post-Emergence at 250 g/ha; after 13 d
observationType: damage to plant (100=total damage; 0=no damage) SETFA

>>> result("CCn1nc([C@H]2CN(C)C(=O)[C@@H]2C(=O)Nc2cccc(F)c2F)c2ccc(F)cc21")
90
>>> result("CN1CC(c2cc(C(F)(F)F)n(C)n2)C(C(=O)Nc2cccc(F)c2F)C1=O (stereo not shown) [Compound 12]")
0
>>> result("CN1CC(c2nn(C)c(Cl)c2Br)C(C(=O)Nc2ccc(F)cc2F)C1=O (racemic)")
50
>>> result("CN1CC(c2cc(C(F)(F)F)n(C)n2)C(C(=O)Nc2cccc(F)c2OC(F)(F)F)C1=O (racemic)")
70
>>> result("CN1CC(c2cc(C(F)(F)F)n(C)n2)C(C(=O)Nc2ccc(F)cc2C(C)(F)F)C1=O (racemic)")
90
>>> result("CN1C[C@H](c2nn(C)c3c(F)cccc23)[C@@H](C(=O)Nc2cccc(F)c2F)C1=O")
80
>>> result("CCn1nc([C@H]2CN(C)C(=O)[C@@H]2C(=O)Nc2cccc(F)c2F)c2cc(F)ccc21")
80

---

test system: ivy-leaved morning glory (Ipomoea hederacea, IPOHE); test: Test A pre-emergence, ivy-leaved morning glory; type: in vivo; conditions: Pre-Emergence at 250 g/ha; after 13 d
observationType: damage to plant (100=total damage; 0=no damage) IPOHE

>>> result("CN1CC(c2cc(C(F)(F)F)n(C)n2)C(C(=O)Nc2ccccc2F)C1=O (racemic) [Compound 9]")
0
>>> result("CN1CC(c2cc(C(F)(F)F)n(C)n2)C(C(=O)Nc2cccc(F)c2C(F)(F)F)C1=O (racemic) [Compound 19]")
10
>>> result("CN1CC(c2cnn(C)c2C(F)(F)F)C(C(=O)Nc2cccc(F)c2F)C1=O (racemic) [Compound 25]")
0
>>> result("CN1CC(c2cc(Cl)n(C)n2)C(C(=O)Nc2ccc(F)c(F)c2F)C1=O (racemic) [Compound 31]")
10
>>> result("CN1CC(c2cc(C(F)(F)F)n(C)n2)C(C(=O)Nc2ccc(F)cc2F)C1=O (racemic) [Compound 6]")
10
>>> result("CCn1nc([C@H]2CN(C)C(=O)[C@@H]2C(=O)Nc2ccc(F)nc2F)c2cccc(F)c21 [Compound 11]")
10
>>> result("CCn1nc(C2CN(C)C(=O)C2C(=O)Nc2cccc(F)c2F)c2cccc(F)c21 (stereo not shown) [Compound 15]")
0
>>> result("CN1CC(c2cc(C(F)(F)F)n(C)n2)C(C(=O)Nc2cccc(F)c2OC(F)F)C1=O (racemic) [Compound 23]")
20
>>> result("CN1CC(c2nn(C)c(Cl)c2Br)C(C(=O)Nc2ccc(F)cc2F)C1=O (racemic) [Compound 30]")
10
>>> result("CCn1nc([C@H]2CN(C)C(=O)[C@@H]2C(=O)Nc2cccc(F)c2F)c2ccc(F)cc21 [Compound 4]")
70

---

tested on: plants; assay: Test D pre-emergence, other plants of Tables D1 and D3; type: in vivo; details: pre-emergence, rate 60, 20 DAA, 100=total damage, 0=no damage
observationType: damage to plant, CHEAL

>>> result("CN1CC(c2cc(C(F)(F)F)n(C)n2)C(C(=O)Nc2ccc(F)cc2F)C1=O (racemic)")
0
>>> result("COc1c(F)cccc1NC(=O)C1C(=O)N(C)CC1c1cc(C(F)(F)F)n(C)n1 (racemic)")
0
>>> result("CN1CC(c2cc(C(F)(F)F)n(C)n2)C(C(=O)Nc2ccc(F)nc2F)C1=O (racemic)")
20
>>> result("CN1CC(c2cc(C(F)(F)F)n(C)n2)C(C(=O)Nc2cccc(F)c2C(F)(F)F)C1=O (racemic)")
0
>>> result("CCn1nc([C@H]2CN(C)C(=O)[C@@H]2C(=O)Nc2cccc(F)c2F)c2cc(F)ccc21")
0
>>> result("CN1CC(c2cc(C(F)(F)F)n(C)n2)C(C(=O)Nc2cccc(F)c2F)C1=O (racemic)")
0
